tgt: LMP7 (purified human immuno proteasome) (Homo sapiens)
protocol-notes: Determination of LMP7 activity (fluorescence intensity assay, Suc-LLVY-AMC)
Format: biochemical
measurement-parameters: incubation for 20 minutes at 25° C.; concentrations 30 μM to 15 pM; read-out: LMP7 IC50
recorded-endpoint: IC50

[
  {
    "molecule": "O=C(N[C@@H](Cc1coc2ccccc12)B(O)O)[C@H]1C2C(=O)N(C3CC3)C[C@]23C=C[C@H]1O3 (stereo partly shown) [compound 17]",
    "IC50": "< 50 nM"
  }
]

Observed IC50 on LMP7 (purified human immuno proteasome) (Homo sapiens), entry Cc1ccc(C[C@H](NC(=O)[C@@H]2C[C@H]3CC[C@@H]2O3)B(O)O)c(C)c1 [compound 25] , equals 50 to 500 nM

The recorded IC50 with LMP7 (purified human immuno proteasome) (Homo sapiens) for O=C(N[C@@H](Cc1coc2ccccc12)B(O)O)[C@H]1C[C@@H]2CC[C@H]1O2 [compound 8] was < 50 nM

Observed IC50 on LMP7 (purified human immuno proteasome) (Homo sapiens), entry O=C(N[C@@H](C[C@@H]1COc2ccccc21)B(O)O)[C@]12CC[C@H](O1)c1ccccc12 [compound 16] , equals < 50 nM

----------
Entries annotated with measured pIC50
tgt: Beta5 (purified human constitutive proteasome) (Homo sapiens, UniProt P28074)
protocol-notes: Determination of Beta5 activity (fluorescence intensity assay, Suc-LLVY-AMC)
Type: biochemical
measurement-parameters: incubation for 20 minutes at 25° C.; concentrations 30 μM to 15 pM; read-out: Beta5 IC50
pIC50: −log10 of the molar value.

Sample records with pIC50:
[
  {
    "molecule": "O=C(N[C@@H](CCc1ccccc1)B(O)O)[C@@H]1C[C@H]2CC[C@@H]1O2 [compound 27]",
    "tgt": "Beta5 (purified human constitutive proteasome) (Homo sapiens, UniProt P28074)",
    "pIC50": "< 4.52"
  },
  {
    "molecule": "O=C(N[C@@H](C[C@@H]1COc2ccccc21)B(O)O)[C@H]1C[C@@H]2CC[C@H]1O2 [compound 2]",
    "tgt": "Beta5 (purified human constitutive proteasome) (Homo sapiens, UniProt P28074)",
    "pIC50": "4.52 to 5.30"
  },
  {
    "molecule": "O=C(N[C@@H](C[C@@H]1COc2ccccc21)B(O)O)[C@]12CC[C@H](O1)c1ccccc12 [compound 16]",
    "tgt": "Beta5 (purified human constitutive proteasome) (Homo sapiens, UniProt P28074)",
    "pIC50": "4.52 to 5.30"
  },
  {
    "molecule": "O=C(N[C@@H](C[C@@H]1COc2ccccc21)B(O)O)[C@@]12CC[C@@H](O1)c1ccccc12 [compound 18]",
    "tgt": "Beta5 (purified human constitutive proteasome) (Homo sapiens, UniProt P28074)",
    "pIC50": "4.52 to 5.30"
  },
  {
    "molecule": "C[C@]12CC[C@](C(=O)N[C@@H](C[C@@H]3COc4ccccc43)B(O)O)(O1)c1ccccc12 [compound 21]",
    "tgt": "Beta5 (purified human constitutive proteasome) (Homo sapiens, UniProt P28074)",
    "pIC50": "4.52 to 5.30"
  }
]

The molecule listed as C[C@@]12CC[C@@](C(=O)N[C@@H](C[C@@H]3COc4ccccc43)B(O)O)(O1)c1ccccc12 [compound 23] shows pIC50 equal to 4.52 to 5.30

Notebook: O=C(N[C@@H](C[C@@H]1COc2ccccc21)B(O)O)[C@@H]1C[C@H]2CC[C@@H]1O2 [Compound No. 1] , pIC50 read as 4.52 to 5.30

# pIC50 of Cc1cccc2c(C[C@H](NC(=O)[C@]34CC[C@H](O3)c3ccccc34)B(O)O)coc12 [compound 19] = 4.52 to 5.30

Record summary for O=C(N[C@@H](Cc1coc2ccccc12)B(O)O)[C@H]1C2C(=O)N(C3CC3)C[C@]23C=C[C@H]1O3 (stereo partly drawn) [compound 17] : reported pIC50 = 4.52 to 5.30

# molecule Cc1cccc2c1OC[C@@H]2C[C@H](NC(=O)[C@@H]1C[C@H]2CC[C@@H]1O2)B(O)O [compound 14] ; its pIC50 = < 4.52

Reported pIC50 of O=C(N[C@@H](Cc1ccsc1)B(O)O)[C@@H]1C[C@H]2CC[C@@H]1O2 [compound 3] : < 4.52

Values were extracted from patent US11858951B2.
